Numbers sourced from ChEMBL document CHEMBL1157216.

pIC50: −log10 of the molar value.
Target or system Epidermal growth factor receptor (Homo sapiens); recorded quantity pIC50.
Measurement Name: pIC50

1) O=C(/C=C/c1ccc(O)c(O)c1)c1ccc(O)cc1O :: 5.10
2) COc1c(O)cc2occ(-c3ccc(O)cc3)c(=O)c2c1O :: 5.48

---

# Assayed System: Cyclin-dependent kinase 6 (Homo sapiens, UniProt Q00534)
# Sequence (Q00534 whole entry): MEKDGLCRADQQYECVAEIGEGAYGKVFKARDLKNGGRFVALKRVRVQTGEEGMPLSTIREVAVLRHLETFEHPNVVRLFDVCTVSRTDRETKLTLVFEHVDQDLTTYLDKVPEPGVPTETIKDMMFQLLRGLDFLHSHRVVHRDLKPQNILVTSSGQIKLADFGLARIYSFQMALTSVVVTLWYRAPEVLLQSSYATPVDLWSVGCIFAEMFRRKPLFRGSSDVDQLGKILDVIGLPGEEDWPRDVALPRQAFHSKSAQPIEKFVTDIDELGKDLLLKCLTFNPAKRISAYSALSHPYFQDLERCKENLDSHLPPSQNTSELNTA
pIC50: −log10 of the molar value.
Measurement Name: pIC50

1) O=C1c2ccccc2-[n+]2ccc3c([nH]c4ccccc43)c21 [FASCAPLYSIN CHLORIDE] :: 5.47

---

# Assay: Inhibition of FGFR
pIC50: −log10 of the molar value.
Measurement Name: pIC50

1) O=c1cc(-c2ccc(O)cc2)oc2cc(O)cc(O)c12 :: 4.70

---

# Assay: Inhibition of PKD
Measurement Name: IC50 (µM)

1) Oc1ccc(/C=C/c2cc(O)cc(O)c2)cc1 [RESVERATROL] :: 200

---

# Assay: Inhibition of PKC
Measurement Name: IC50 (µM)

1) Oc1cc(O)cc(/C=C/c2ccc(O)c(O)c2)c1 :: 8
2) O=c1cc(-c2ccc(O)cc2)oc2cc(O)cc(O)c12 :: 10
3) Oc1ccc(/C=C/c2cc(O)cc(O)c2)cc1 :: 90

---

# Assay: Inhibition of CK2
Measurement Name: Ki (nM)

1. Oc1ccc(/C=C/c2cc(O)cc(O)c2)cc1 :: 1200
2. O=c1c(O)c(-c2cc(O)c(O)c(O)c2)oc2cc(O)cc(O)c12 :: 600

---

# Assay: Inhibition of PKC
Ki for assorted compounds
Measurement Name: Ki (µM)

1. O=c1c(O)c(-c2cc(O)c(O)c(O)c2)oc2cc(O)cc(O)c12 :: 12.1
2. Oc1ccc(/C=C/c2cc(O)cc(O)c2)cc1 :: 55

---

IC50 for assorted molecules
# Assay: Inhibition of CK2
Measurement Name: IC50 (nM)

1) O=c1c(O)c(-c2ccc(O)c(O)c2)oc2cc(O)ccc12 :: 350
2) Oc1ccc(/C=C/c2cc(O)cc(O)c2)cc1 :: 10000
3) O=c1c(O)c(-c2cc(O)c(O)c(O)c2)oc2cc(O)cc(O)c12 :: 920

---

# Assay: Inhibition of CK1
pKi: −log10 of the molar value.
Measurement Name: pKi

1. O=c1c(O)c(-c2cc(O)c(O)c(O)c2)oc2cc(O)cc(O)c12 :: 5.05

---

# Assay: Inhibition of CaM kinase
Measurement Name: IC50 (µM)

1. Oc1cc(O)cc(/C=C/c2ccc(O)c(O)c2)c1 [PICEATANNOL] :: 19
